test: clinical; conditions: human, in vivo, 15.5 mg/m2
parameter.measured: Tmax (min)

[[record]]
entry_smiles = "COc1ccc(/C=C\\c2cc(OC)c(OC)c(OC)c2)cc1NC(=O)[C@@H](N)CO"
parameter_measured = "Tmax"
endpoint_result = 28.8


====

assay: clinical; conditions: human, in vivo, 15.5 mg/m2
parameter.measured: Cmax

[[record]]
entry_smiles = "COc1ccc(/C=C\\c2cc(OC)c(OC)c(OC)c2)cc1NC(=O)[C@@H](N)CO"
endpoint_result = "712 ng/mL"


====

experiment: clinical; conditions: human, in vivo, 20 mg/m2
parameter.measured: Tmax (min)

[[record]]
molecule = "COc1ccc(/C=C\\c2cc(OC)c(OC)c(OC)c2)cc1NC(=O)[C@@H](N)CO [ombrabulin]"
endpoint_result = 28.8

